Below is a list of entries, each paired with its recorded yeast fitness value.
B1: tRNA (parent)
chain: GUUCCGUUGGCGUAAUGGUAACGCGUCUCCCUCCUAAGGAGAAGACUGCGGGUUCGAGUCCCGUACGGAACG

- Variants of: B1
- test details: yeast fitness relative to wild type (ratio to wild type); higher = fitter; tRNA-Arg(CCU), competitive growth, 37 C, YPD
Variants at the floor of the assay were thinned out.

Answered examples (2):
G18C U28G A36C G38C : ≤ 0.5
U16C C33U A36C A45C U64G : ≤ 0.5

Exam item: Can you look up the measured yeast fitness of A21G C22A C29A C61U for me?
Marked response: ≤ 0.5

Exam item: Given the entry C5G U7C G52A , report its measured yeast fitness.
Marked response: ≤ 0.5

Recorded values, source the RNAGym collection of RNA variant scans (doi:10.1126/science.aae0568).
